Entries and their abundance fitness
B1: Pre-mRNA-processing factor 40 homolog B, residues 274 to 332; numbered along this chain, Q6NWY9 (parent)
chain: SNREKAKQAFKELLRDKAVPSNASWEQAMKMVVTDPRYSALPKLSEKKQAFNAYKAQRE

Variants of: B1
PROTOCOL_DESCRIPTION: abundance fitness (aPCA) (normalised: wild type 0, dead -1); higher = more abundant; growth selection in yeast, the domain comes from the species named
SETTINGS: Homo sapiens

MUTANT_ID: F10Y
abundance fitness: -0.282

MUTANT_ID: A23G
abundance fitness: -0.464

MUTANT_ID: A50K
abundance fitness: -0.765

MUTANT_ID: A50R
abundance fitness: -0.818

MUTANT_ID: Q49W
abundance fitness: -0.643

MUTANT_ID: S1F
abundance fitness: 0.15

MUTANT_ID: S21C
abundance fitness: -0.001

MUTANT_ID: P42A
abundance fitness: -0.147

MUTANT_ID: Q57P
abundance fitness: -0.249

MUTANT_ID: S24I
abundance fitness: -0.65

MUTANT_ID: Y54L
abundance fitness: -0.085

MUTANT_ID: L44S
abundance fitness: -0.175

MUTANT_ID: E12A
abundance fitness: -0.231

MUTANT_ID: P42E
abundance fitness: 0.018

MUTANT_ID: L13M
abundance fitness: 0.122

MUTANT_ID: E26F
abundance fitness: -0.729

MUTANT_ID: E59D
abundance fitness: -0.203

MUTANT_ID: E26L
abundance fitness: -0.362

MUTANT_ID: Q8P
abundance fitness: -0.42

MUTANT_ID: Y38N
abundance fitness: -0.466

MUTANT_ID: Q57R
abundance fitness: -0.286

MUTANT_ID: L44D
abundance fitness: -0.288

MUTANT_ID: P20H
abundance fitness: -0.789

MUTANT_ID: E46K
abundance fitness: -0.939

MUTANT_ID: A40P
abundance fitness: -0.675

MUTANT_ID: V19R
abundance fitness: -0.633

MUTANT_ID: K43A
abundance fitness: -0.014

MUTANT_ID: K17C
abundance fitness: -0.38

MUTANT_ID: E4D
abundance fitness: -0.01

MUTANT_ID: K7T
abundance fitness: 0.042

MUTANT_ID: K11E
abundance fitness: 0.004

MUTANT_ID: A56C
abundance fitness: -0.451

MUTANT_ID: A53R
abundance fitness: -0.452

MUTANT_ID: Y38A
abundance fitness: -0.317

MUTANT_ID: S45T
abundance fitness: -0.211

MUTANT_ID: K11Y
abundance fitness: -0.155

MUTANT_ID: A50P
abundance fitness: -0.351

MUTANT_ID: W25L
abundance fitness: -0.242

MUTANT_ID: K5G
abundance fitness: -0.187

MUTANT_ID: L14I
abundance fitness: -1.05

MUTANT_ID: M29E
abundance fitness: -0.102

MUTANT_ID: V19N
abundance fitness: -0.598

MUTANT_ID: M31Q
abundance fitness: -0.246

MUTANT_ID: K11W
abundance fitness: 0.082

MUTANT_ID: D16Y
abundance fitness: -0.888

MUTANT_ID: M29T
abundance fitness: -0.282

MUTANT_ID: P42S
abundance fitness: -0.131

MUTANT_ID: K43N
abundance fitness: -0.105

MUTANT_ID: S39P
abundance fitness: -0.527

MUTANT_ID: R15I
abundance fitness: -0.052

MUTANT_ID: K55I
abundance fitness: -0.11

MUTANT_ID: P36S
abundance fitness: -0.366

MUTANT_ID: K47H
abundance fitness: -0.427

MUTANT_ID: E12W
abundance fitness: -1.15

MUTANT_ID: E59F
abundance fitness: -0.53

MUTANT_ID: K47L
abundance fitness: -0.605

MUTANT_ID: A9W
abundance fitness: -0.72

MUTANT_ID: A18C
abundance fitness: 0.007

MUTANT_ID: S39L
abundance fitness: -0.342

MUTANT_ID: S24G
abundance fitness: -0.366

MUTANT_ID: T34Y
abundance fitness: -0.23

MUTANT_ID: K47D
abundance fitness: -0.41

MUTANT_ID: S1V
abundance fitness: 0.13

MUTANT_ID: A23V
abundance fitness: -0.222

MUTANT_ID: V19F
abundance fitness: -0.932

MUTANT_ID: D16P
abundance fitness: -0.875

MUTANT_ID: D16K
abundance fitness: -0.699

MUTANT_ID: F10G
abundance fitness: -0.277

MUTANT_ID: A9V
abundance fitness: 0.003

MUTANT_ID: V33C
abundance fitness: 0.137

MUTANT_ID: K11I
abundance fitness: 0.233

MUTANT_ID: W25R
abundance fitness: -0.189

MUTANT_ID: A18L
abundance fitness: -0.127

MUTANT_ID: R37I
abundance fitness: -0.228

MUTANT_ID: M29C
abundance fitness: -0.203

MUTANT_ID: F10L
abundance fitness: -0.424

MUTANT_ID: K7H
abundance fitness: 0.065

MUTANT_ID: K48F
abundance fitness: -0.435

MUTANT_ID: K47C
abundance fitness: -0.606

MUTANT_ID: Q27Y
abundance fitness: -0.524

MUTANT_ID: A18V
abundance fitness: -0.367

MUTANT_ID: A6Y
abundance fitness: -0.56

MUTANT_ID: A28F
abundance fitness: -0.563

MUTANT_ID: K11Q
abundance fitness: 0.343

MUTANT_ID: L41H
abundance fitness: -0.785

MUTANT_ID: M29F
abundance fitness: -0.295

MUTANT_ID: K55S
abundance fitness: -0.25

MUTANT_ID: E46N
abundance fitness: -0.566

MUTANT_ID: N2P
abundance fitness: -0.497

MUTANT_ID: K5M
abundance fitness: -0.024

MUTANT_ID: D35N
abundance fitness: -0.415
